# credit: ChEMBL document CHEMBL1914344

Quick reference: Activity of the listed items.
Tested on: Rattus norvegicus
procedure.summary: Antidyslipidemic activity in rat hyperlipidemic model assessed as decrease is plasma LDL level at 56 umol/kg, ip after 24 hrs relative to control
Type: functional
Parameters: scale not given: the % may be the effect or the level left
readout: Activity (%)

compound | observed.value
CN1CC(O)(c2ccc(-c3ccccc3)cc2)Sc2ccccc21 (stereo not given) | 26
CN1CC(O)(c2ccc(-c3ccccc3)cc2)Oc2ccccc21 (stereo not given) | 74
CN1CC(O)(c2ccc(-c3ccccc3)cc2)OC2CCCCC21 (stereo not given) | 51
CCC(C)(C)C(=O)O[C@H]1C[C@@H](C)C=C2C=C[C@H](C)[C@H](CC[C@@H]3C[C@@H](O)CC(=O)O3)[C@H]21 | 70
CC(C)(Sc1cc(C(C)(C)C)c(O)c(C(C)(C)C)c1)Sc1cc(C(C)(C)C)c(O)c(C(C)(C)C)c1 | 18
